target of assay: T1, Insulin receptor prepared according to Bass et al., 1996: soluble human insulin receptor-immunoglobulin heavy … (human, UniProt P06213 28-956)
T1 construct: extracellular domain; Eu3+-labelled in TR-FRET; also called IR; sIR-Fc; not shown: immunoglobulin heavy chain constant domains that replace the transmembrane and i
protocol summary: phage ELISA vs milk
Positions of bridges follow the written chain, without caps; N, C: chain ends. No end group written: not given here.
Collected Ratio over Background values appear next to each entry.
Reply numerically in fold, unit not repeated.

These solved cases illustrate the format of a correct answer.
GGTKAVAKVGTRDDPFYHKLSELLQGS [H6Hα-4-G8-IR]; 1.7
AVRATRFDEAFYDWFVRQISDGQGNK [H2CA-4-86-GFR]; 1.1
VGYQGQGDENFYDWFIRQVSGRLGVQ [H2CA-4-F5-IGFR]; 0.8

Asked: Which measured Ratio over Background value corresponds to GFREGNFYEWFQAQVT [E4Da-4-H2-IR] ?
Given back: 8.2

Asked: Which measured Ratio over Background value corresponds to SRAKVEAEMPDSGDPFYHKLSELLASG [B6Hα-1-A3-IR] ?
Given back: 0.8

Asked: Which measured Ratio over Background value corresponds to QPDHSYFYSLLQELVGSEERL [20E2B-4-F9-IGFR] ?
Given back: 1.9

Asked: Which measured Ratio over Background value corresponds to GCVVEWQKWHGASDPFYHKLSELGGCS (disulfide 2-26 (inferred)) [B6Hα-3-F10-IR] ?
Given back: 1.9

Asked: Which measured Ratio over Background value corresponds to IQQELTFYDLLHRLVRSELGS [20E2B-3-D2-IGFR] ?
Given back: 1.2
